Value source: patent US9676782B2

Target: UniProt:P31422
Assay: mGlu3 Ca2+ flux assay
Assay type: cell-based
Details: amplitude of response at 30 μM test compound as % of maximal response to glutamate; read-out: rat mGlu3 Glu max (%)
ENDPOINT_LABEL: remaining activity at 30 µM (%)
Numbers only, in %.

Okay, here is my list. What is remaining activity at 30 µM for each of these?
1. N#Cc1cccc(NCc2cc3n(n2)CCN(c2ccc(F)cc2)C3=O)c1 [Compound 11]
2. COc1ccc(N(C)Cc2cc3n(n2)CCN(c2cc(F)cc(F)c2)C3=O)cc1 [Compound 104]

1: 1.48; 2: 1.3

Okay, here is my list. What is remaining activity at 30 µM for each of these?
1. O=C1c2cc(CNc3ccc(OC(F)F)cc3F)nn2CCN1c1ccc(F)cc1 [Compound 37]
2. CCCN(Cc1cc2n(n1)CCN(c1ccc(F)c(F)c1)C2=O)c1ccc(OC)cc1 [Compound 167]
3. Cc1cccc(NCc2cc3n(n2)[C@H](C)CN(c2ccc(F)cc2)C3=O)c1 [Compound 50]
4. O=C1c2cc(CNc3ccc(OC(F)F)cc3F)nn2CCN1c1cc(F)cc(F)c1 [Compound 152]
5. COCc1ccc(N2CCn3nc(CN(C)c4ccc(OC)cc4)cc3C2=O)cc1 [Compound 120]
6. O=C1c2cc(CNc3ccc(Cl)cn3)nn2CCN1c1ccc(F)cc1 [Compound 158]
7. O=C1c2cc(CNc3ccccn3)nn2CCN1c1ccc(F)cc1 [Compound 156]

1: 2.57; 2: 1.32; 3: 0.09; 4: 2.23; 5: 1.48; 6: 1.27; 7: -1.17

---

Consider the following compounds; for each one, report its Emax at 30 µM.
Target: rat mGlu5 (Rattus norvegicus (Rat), UniProt P31424)
Sequence (P31424 21-1203): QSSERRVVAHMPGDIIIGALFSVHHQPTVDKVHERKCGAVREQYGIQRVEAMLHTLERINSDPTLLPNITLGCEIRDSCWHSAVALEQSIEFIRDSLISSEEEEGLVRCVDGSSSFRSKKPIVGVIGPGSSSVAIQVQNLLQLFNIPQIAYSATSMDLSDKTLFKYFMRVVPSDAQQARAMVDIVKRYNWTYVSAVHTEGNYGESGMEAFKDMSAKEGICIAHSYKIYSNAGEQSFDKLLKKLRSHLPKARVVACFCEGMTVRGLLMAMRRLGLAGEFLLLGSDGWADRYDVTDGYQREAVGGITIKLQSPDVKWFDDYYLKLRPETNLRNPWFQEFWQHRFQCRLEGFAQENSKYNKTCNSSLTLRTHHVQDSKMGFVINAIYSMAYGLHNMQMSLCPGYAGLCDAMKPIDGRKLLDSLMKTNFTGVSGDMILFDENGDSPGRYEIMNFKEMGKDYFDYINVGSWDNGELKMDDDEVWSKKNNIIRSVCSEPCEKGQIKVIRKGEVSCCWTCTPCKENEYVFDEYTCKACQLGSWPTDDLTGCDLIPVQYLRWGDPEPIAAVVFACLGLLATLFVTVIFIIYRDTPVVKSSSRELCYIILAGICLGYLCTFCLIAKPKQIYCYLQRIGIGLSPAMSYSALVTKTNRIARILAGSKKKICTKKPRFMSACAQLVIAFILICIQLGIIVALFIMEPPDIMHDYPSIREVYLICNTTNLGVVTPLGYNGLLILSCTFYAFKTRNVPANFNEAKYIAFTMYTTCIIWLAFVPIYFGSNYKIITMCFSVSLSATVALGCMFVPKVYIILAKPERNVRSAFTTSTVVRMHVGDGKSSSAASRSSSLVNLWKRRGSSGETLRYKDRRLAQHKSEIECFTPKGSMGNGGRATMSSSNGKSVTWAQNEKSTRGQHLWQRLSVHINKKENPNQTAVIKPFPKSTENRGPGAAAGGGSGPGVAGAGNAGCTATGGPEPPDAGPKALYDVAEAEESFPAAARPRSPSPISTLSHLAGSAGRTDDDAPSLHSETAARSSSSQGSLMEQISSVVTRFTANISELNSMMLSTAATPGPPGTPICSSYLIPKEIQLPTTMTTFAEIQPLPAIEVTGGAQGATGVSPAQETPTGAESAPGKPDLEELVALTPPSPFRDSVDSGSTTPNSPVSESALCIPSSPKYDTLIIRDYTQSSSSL
Experiment: mGlu5 Ca2+ flux assay
Assay type: cell-based
Settings: compound noted as NAM or partial antagonist (PAnt) at mGlu5; response at 30 μM as % of maximal glutamate response; read-out: rat mGlu5 Glu max (%)
One number for each entry, in %.

COc1ccc(N(C)Cc2cc3n(n2)CCN(c2cccc(F)c2Cl)C3=O)cc1 [Compound 126]; 56.8
COc1ccc(N(C)Cc2cc3n(n2)CCN(c2cc(Cl)ccc2F)C3=O)cc1 [Compound 127]; 54.6
C[C@@H]1CN(c2ccc(F)cc2)C(=O)c2cc(CNc3cccc(OC(F)F)c3)nn21 [Compound 54]; 36
CN(Cc1cc2n(n1)CCN(c1ccc(F)cc1)C2=O)c1ccccc1Cl [Compound 84]; 73.4
O=C1c2cc(CNc3ccc(Cl)cn3)nn2CCN1c1ccc(F)cc1 [Compound 158]; 73.6
O=C1c2cc(CNc3ccccn3)nn2CCN1c1ccc(F)cc1 [Compound 156]; 49.1

Which Emax at 30 µM value belongs to O=C1c2cc(CNc3ccc(F)cn3)nn2CCN1c1ccc(F)cc1 [Compound 155] ?
11.3

---

Molecular target: UniProtKB P31422
Assay: mGlu3 Ca2+ flux assay
Type: cell-based
Settings: amplitude of response at 30 μM test compound as % of maximal response to glutamate; read-out: rat mGlu3 Glu max (%)
Consider the following compounds; for each one, report its remaining activity at 30 µM.
Answers are plain numbers, in %.

Use the examples below as a reference point.
O=C1c2cc(CNc3cccc(Cl)n3)nn2CCN1c1ccc(F)cc1; 1.15
C[C@@H]1CN(c2ccc(F)cc2)C(=O)c2cc(CNc3ccc(F)cc3)nn21; 2.97
C[C@H]1CN(c2ccc(F)cc2)C(=O)c2cc(CNc3cccc(F)c3)nn21; 1.77
COc1ccc(N(C)Cc2cc3n(n2)CCN(c2c(F)cc(F)cc2F)C3=O)cc1; 1.68

Okay, here is my list. What is remaining activity at 30 µM for each of these?
1. COc1ccc(N(C)Cc2cc3n(n2)CCN(c2cccnc2)C3=O)cc1
2. COc1ccc(NCc2cc3n(n2)[C@H](C)CN(c2ccc(F)cc2)C3=O)cc1
3. C[C@@H]1CN(c2ccc(F)cc2)C(=O)c2cc(CNc3ccccc3F)nn21
4. O=C1c2cc(CNc3cc(F)cc(F)c3)nn2CCN1c1ccc(F)cc1
5. COc1ccc(N(C)Cc2cc3n(n2)CCN(c2ccc(F)c(Cl)c2)C3=O)cc1
6. C[C@H]1CN(c2ccc(F)cc2)C(=O)c2cc(CNc3c(F)cc(F)cc3F)nn21
7. O=C1c2cc(CNc3ccc(OC(F)F)cc3F)nn2CCN1c1ccc(F)cc1F

1: 0.66; 2: 0.79; 3: 0.89; 4: 2.71; 5: 2.13; 6: -0.58; 7: 1.87

Okay, here is my list. What is remaining activity at 30 µM for each of these?
1. Cc1ccc(NCc2cc3n(n2)[C@H](C)CN(c2ccc(F)cc2)C3=O)cc1
2. O=C1c2cc(CNc3ccc(OC(F)F)cc3F)nn2CCN1c1ncccc1F
3. C[C@@H]1CN(c2ccc(F)cc2)C(=O)c2cc(CNc3c(F)cc(F)cc3F)nn21
4. Cc1ccc(N2CCn3nc(CNc4ccc(OC(F)F)cc4F)cc3C2=O)nc1
5. N#CCc1ccc(NCc2cc3n(n2)CCN(c2ccc(F)cc2)C3=O)cc1
6. COc1ccc(NC(C)c2cc3n(n2)CCN(c2ccc(F)cc2)C3=O)cc1 (stereo not drawn)

1. 1.27
2. 1.31
3. 1.49
4. 5.68
5. 1.01
6. -6.64

Entry COc1ccc(N(C)Cc2cc3n(n2)CCN(c2ccccc2F)C3=O)cc1 , system UniProtKB P31422: what remaining activity at 30 µM was measured?
2.05

---

Molecular target: rat mGlu3 (Rattus norvegicus (Rat))
Sequence (P31422 23-879): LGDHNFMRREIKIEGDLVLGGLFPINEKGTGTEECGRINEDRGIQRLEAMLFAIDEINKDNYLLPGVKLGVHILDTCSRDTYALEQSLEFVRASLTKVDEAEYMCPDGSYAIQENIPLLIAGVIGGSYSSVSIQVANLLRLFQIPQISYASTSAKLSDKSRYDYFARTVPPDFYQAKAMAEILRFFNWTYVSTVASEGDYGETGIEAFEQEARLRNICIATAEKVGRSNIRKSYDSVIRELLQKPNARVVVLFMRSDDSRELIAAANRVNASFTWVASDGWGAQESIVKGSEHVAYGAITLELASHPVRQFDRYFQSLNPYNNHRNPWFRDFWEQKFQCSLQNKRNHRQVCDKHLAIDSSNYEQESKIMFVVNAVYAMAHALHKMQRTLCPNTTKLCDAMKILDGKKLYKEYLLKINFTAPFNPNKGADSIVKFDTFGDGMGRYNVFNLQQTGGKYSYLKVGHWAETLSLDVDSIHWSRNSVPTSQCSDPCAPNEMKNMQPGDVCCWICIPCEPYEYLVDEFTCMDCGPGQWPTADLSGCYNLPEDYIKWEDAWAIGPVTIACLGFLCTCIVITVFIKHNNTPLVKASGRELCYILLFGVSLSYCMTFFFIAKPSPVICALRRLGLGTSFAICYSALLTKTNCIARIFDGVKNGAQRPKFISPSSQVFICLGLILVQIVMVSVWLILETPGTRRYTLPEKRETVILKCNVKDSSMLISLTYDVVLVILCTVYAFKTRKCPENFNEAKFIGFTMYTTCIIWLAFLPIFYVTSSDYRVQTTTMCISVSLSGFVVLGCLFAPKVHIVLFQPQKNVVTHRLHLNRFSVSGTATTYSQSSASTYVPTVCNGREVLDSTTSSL
Test: mGlu3 Ca2+ flux assay
Assay type: cell-based
Details: Table 2 compounds with X = O; response at 30 μM compound as percentage of maximal glutamate response
ENDPOINT_LABEL: mGlu3 Glu max (%)
Numbers only, in %.

Use the examples below as a reference point.
O=C1c2cc(COc3cccc(F)c3)nn2CCN1c1ccc(F)cc1 [drawing 31 X = O, reference compound]; 1
O=C1c2cc(COc3ccccc3F)nn2CCN1c1ccc(F)cc1 [drawing 30 X = O, reference compound]; 2
O=C1c2cc(COc3ccc(F)cc3)nn2CCN1c1ccc(F)cc1 [drawing 32 X = O, reference compound]; 1

Which mGlu3 Glu max value belongs to O=C1c2cc(COc3ccccc3)nn2CCN1c1ccc(F)cc1 [drawing 29 X = O, reference compound] ?
2

---

Molecular target: rat mGlu5 (Rattus norvegicus (Rat), UniProt P31424)
Assay: mGlu5 Ca2+ flux assay
Format: cell-based
Conditions: read-out: rat mGlu5 EC50 or IC50
pEC50: −log10 of the molar value.
ENDPOINT_LABEL: pEC50

Okay, here is my list. What is pEC50 for each of these?
1. C[C@H]1CN(c2ccc(F)cc2)C(=O)c2cc(CNc3ccc(F)cc3)nn21
2. COc1ccc(N(C)Cc2cc3n(n2)CCN(c2c(F)cc(Cl)cc2F)C3=O)cc1
3. COc1ccc(N(C)Cc2cc3n(n2)CCN(c2ccc(Cl)cn2)C3=O)cc1

1. 5.26
2. < 4.52
3. < 4.52

---

Consider the following compounds; for each one, report its remaining activity at 30 µM.
Target: rat mGlu3 (Rattus norvegicus (Rat))
Assay: mGlu3 Ca2+ flux assay
Assay type: cell-based
Conditions: amplitude of response at 30 μM test compound as % of maximal response to glutamate; read-out: rat mGlu3 Glu max (%)
Experimental: The cells were grown overnight at 37° C. in the presence of 5% CO2. […] Dye was removed, 20 μL of assay buffer was added, and the plate was incubated for 10 minutes at room temperature. Ca^2+ flux was measured using the Functional Drug Screening System (FDSS7000, Hamamatsu, Japan). […] Calcium fluorescence measures were recorded as fold over basal fluorescence; raw data was then normalized to the maximal response to glutamate. […]
Numbers only, in %.

Okay, here is my list. What is remaining activity at 30 µM for each of these?
1. CN(Cc1cc2n(n1)CCN(c1ccc(F)cc1)C2=O)c1ccc(Br)cc1
2. C[C@@H]1CN(c2ccc(F)cc2)C(=O)c2cc(CNc3cc(F)ccc3F)nn21
3. COc1ccc(N(C)Cc2cc3n(n2)CCN(c2cccc(C)c2)C3=O)cc1
4. COc1ccc(N(C)Cc2cc3n(n2)CCN(c2ccc(F)c(F)c2)C3=O)cc1

[2.53, 2.67, 1.16, 1.74]

Okay, here is my list. What is remaining activity at 30 µM for each of these?
1. COc1ccc(N(C)Cc2cc3n(n2)CCN(c2ccccn2)C3=O)cc1
2. CC(Nc1ccc(Cl)cc1)c1cc2n(n1)CCN(c1ccc(F)cc1)C2=O (stereo not drawn)

1: 1.59; 2: 1.29

---

Molecular target: rat mGlu5 (Rattus norvegicus (Rat), UniProt P31424)
Test: mGlu5 Ca2+ flux assay
Format: cell-based
Conditions: read-out: rat mGlu5 EC50 or IC50
ENDPOINT_LABEL: EC50

Use the examples below as a reference point.
C[C@H]1CN(c2ccc(F)cc2)C(=O)c2cc(CNc3ccc(OC(F)F)cc3)nn21; > 30 µM
COc1ccc(N(C)Cc2cc3n(n2)CCN(c2cc(F)cc(Cl)c2)C3=O)cc1; > 30 µM
O=C1c2cc(CNc3cc(Cl)ccn3)nn2CCN1c1ccc(F)cc1; > 10 µM
O=C1c2cc(CNc3cccc(Cl)n3)nn2CCN1c1ccc(F)cc1; > 30 µM
O=C1c2cc(CNc3ccc(OC(F)F)cc3F)nn2CCN1c1ccc(Cl)cn1; > 30 µM

Okay, here is my list. What is EC50 for each of these?
1. O=C1c2cc(CNc3ccc(OC(F)(F)F)cc3)nn2CCN1c1ccc(F)cc1
2. COc1ccc(N(C)Cc2cc3n(n2)CCN(c2ccc(C)cc2F)C3=O)cc1
3. C[C@H]1CN(c2ccc(F)cc2)C(=O)c2cc(CNc3cccc(Cl)c3)nn21

["> 30 µM", "> 30 µM", "5.92 µM"]
